Tested on: SNB-75 CNS
procedure_summary: NCI-60 one-dose screen, 48 h
assay_conditions: 10 µM
This is part of a sample that, as a whole, favours compounds with a hit. Of some 83,000 tested, about 20% had one in any assay. Active and inactive are the calls of the source. The calls were made as follows: active = growth percent below 10; inactive = the rest.
Log the outcome using a class from Yes = active, No = inactive

QUERY: Could you please tell me the result logged for CN(CCF)/N=N/c1nc[nH]c1C(N)=O in this assay?
RESULT: No

QUERY: Hi, do you know how CC(=O)O[C@@H]1[C@@H]2O[C@H]2[C@@](C)(O)C(=O)[C@@H](C)C/C=C/[C@H]2[C@@H]3O[C@]3(C)[C@@H](C)C3[C@H](Cc4ccccc4)NC(=O)[C@@]312 (some centres not stated) came out in this test?
RESULT: Yes

QUERY: Tell me the assay call for C[C@@H]1CCC/C=C/[C@H]2C[C@@H](O)C[C@@H]2[C@@H](O)/C=C/C(=O)O1 please.
RESULT: No

QUERY: Call for entry N#Cc1nc(-c2ccccc2)oc1N1CCC(S(=O)(=O)F)CC1 :
RESULT: No

QUERY: Per the assay record, what outcome was assigned to COc1cccc2c1cc([N+](=O)[O-])c1c(C(=O)O)cc3c(c12)OCO3 ?
RESULT: No

QUERY: In this assay, the call recorded for CC1=C2C(=C[C@@](C)(COC(=O)c3ccc(S(=O)(=O)F)cc3)[C@@H]2O)C(=O)[C@](C)(O)C12CC2 was what?
RESULT: Yes

QUERY: Short answer needed: outcome of this test for CC1=C(CCC=NNC(N)=O)C2=C(C)C3(CC3)[C@@](C)(O)C(=O)C2=C1 ?
RESULT: Yes

QUERY: Hi team, can someone confirm the assay call for Cc1ccc(CNc2nc3ccc(OC/C(=C/F)CN)cc3o2)cn1 ?
RESULT: No

QUERY: Outcome? CC1=C[C@H]2O[C@@H]3C[C@@H](O)[C@](C)([C@@]2(C)CC1)[C@@]31CO1
RESULT: No

QUERY: For this compound, state the assay outcome: CCC(C)[C@H]1C(=O)O[C@H](C(C)C)C(=O)N(C)[C@@H](C(C)C)C(=O)O[C@H](C(C)C)C(=O)N(C)[C@@H](C(C)C)C(=O)O[C@H](C(C)C)C(=O)N1C (some centres not stated)
RESULT: Yes

QUERY: Could you kindly confirm the outcome this assay logged for COc1cc2c(O[C@@H]3OC[C@H](OC(C)=O)[C@H](OC(C)=O)[C@H]3O)c3c(c(-c4ccc5c(c4)OCO5)c2cc1OC)C(=O)OC3 ?
RESULT: Yes

QUERY: Please state the recorded outcome for this compound: N#Cc1c(-n2c(Br)c(Br)c3cc(Br)ccc32)[nH]c2c(Br)cc(Br)cc12
RESULT: Yes

QUERY: Entry C/C=C\C(=O)O[C@@H]1CC2O[C@@H]3C=C(C)C(=O)C[C@]3(C)[C@]1(C)[C@]21CO1 : call = ?
RESULT: Yes

QUERY: Kindly provide the recorded test outcome for the following compound: NC1CCc2cc(O)c(O)cc2C1 (configuration not stated)
RESULT: No

QUERY: Record lookup: outcome of this test for CC1=C[C@H]2O[C@@H]3C[C@H]4OC(=O)/C=C\C=C\[C@H]([C@@H](C)O)OCC[C@@H](C)[C@H](O)C(=O)OC[C@@]2(CC1)[C@]4(C)[C@]31CO1 ?
RESULT: Yes

QUERY: Write down the call the test reported for this compound. Item: CC1=C(CN(O)C(N)=O)C2=C(C)C3(CC3)[C@@](C)(O)C(=O)C2=C1
RESULT: Yes

QUERY: What classification did COc1cc2c(O[C@@H]3OC[C@H](O)[C@H](O)[C@H]3O)c3c(c(-c4ccc5c(c4)OCO5)c2cc1OC)C(=O)OC3 end up with in this test?
RESULT: No

QUERY: In this assay, the call recorded for COc1cc(OC)c(S(=O)(=O)N(CCCl)CCCl)cc1C(=O)/C=C/c1ccc(Cl)cc1 was what?
RESULT: No

QUERY: For CC1=C2C(=C[C@@](C)(COC(=O)c3ccc(S(=O)(=O)F)cc3)[C@@H]2OC(=O)c2ccc(S(=O)(=O)F)cc2)C(=O)[C@](C)(O)C12CC2 , which call appears in the assay record?
RESULT: Yes

QUERY: I would be grateful if you could indicate the recorded call for CC(C)=CCc1c2c(c(O)c3c1O[C@]14C(=C[C@@H]5C[C@H]1C(C)(C)O[C@@]4(C/C=C(/C)C(=O)O)C5=O)C3=O)C=CC(C)(C)O2 .
RESULT: Yes

QUERY: Please let me know the test result on file for CC(C)(O)/C=C/C(=O)[C@](C)(O)[C@H]1[C@H](O)C[C@@]2(C)[C@H]3CC=C4[C@@H](C[C@H](O)C(=O)C4(C)C)[C@]3(C)C(=O)C[C@]12C .
RESULT: Yes

QUERY: Write down the call the test reported for this compound. Item: COC1[C@@H]2C[C@H]3C(C)(C)O[C@@](C/C=C(/C)C(=O)O)(C2=O)[C@]32Oc3c(CC=C(C)C)c4c(c(O)c3C(=O)[C@H]12)C=CC(C)(C)O4 (some centres not stated)
RESULT: Yes
